System: Escherichia coli TOP10
Assay: shrunken log2 fold change of peptide-encoding DNA abundance (4.5 h post-induction vs induction); higher = less antimicrobial activity (less host growth inhibition)
Conditions: time post-induction: 4.5 h; library: site-saturation at positions 5, 18, 19, 20
Class assignment keyed on shrunken log2 fold change, ranges lo = under -0.04, med = from -0.04 up to 0.2, hi = 0.2 and over

Just checking, what class would you give RRIRSRPPRLPRPRPRPWFAPRP here? med

Just checking, what class would you give RRIRERPPRLPRPRPRPWHCPRP here? lo

Just checking, what class would you give RRIRHRPPRLPRPRPRPADQPRP here? med

Just checking, what class would you give RRIRLRPPRLPRPRPRPEWMPRP here? med

Just checking, what class would you give RRIRYRPPRLPRPRPRPLGTPRP here? lo

Just checking, what class would you give RRIRYRPPRLPRPRPRPNKQPRP here? lo

Just checking, what class would you give RRIRRRPPRLPRPRPRPGWAPRP here? hi

Just checking, what class would you give RRIRPRPPRLPRPRPRPSFLPRP here? lo

---

Recorded shrunken log2 fold change, one value per entry.
Test system: Escherichia coli TOP10
Experiment: shrunken log2 fold change of peptide-encoding DNA abundance (4.5 h post-induction vs induction); higher = less antimicrobial activity (less host growth inhibition)
Conditions: time post-induction: 4.5 h; library: site-saturation at positions 5, 18, 19, 20
Form rule: numeric answer, no unit written next to it.

As a guide, the following entries are already answered.
            sequence_input       target_under_test  recorded_result
0  RRIRNRPPRLPRPRPRPYQYPRP  Escherichia coli TOP10           0.0162
1  RRIRWRPPRLPRPRPRPWCSPRP  Escherichia coli TOP10           -0.329
2  RRIRNRPPRLPRPRPRPRQVPRP  Escherichia coli TOP10           -0.306

Please give the measured shrunken log2 fold change for this sequence: RRIRNRPPRLPRPRPRPERDPRP 0.157

Please give the measured shrunken log2 fold change for this sequence: RRIRARPPRLPRPRPRPLFAPRP 0.647

---

Tested on: Escherichia coli TOP10
Experiment: shrunken log2 fold change of peptide-encoding DNA abundance (4.5 h post-induction vs induction); higher = less antimicrobial activity (less host growth inhibition)
Conditions: time post-induction: 4.5 h; library: site-saturation at positions 5, 18, 19, 20
Class assignment keyed on shrunken log2 fold change, ranges one: < -0.02; two: ≥ -0.02 and < 0.3; three: ≥ 0.3

>>> print(df.to_string())
            sequence_input  class_label
0  RRIRDRPPRLPRPRPRPYKTPRP          one

Just checking, what class would you give RRIRPRPPRLPRPRPRPPHAPRP here? three

Just checking, what class would you give RRIRNRPPRLPRPRPRPTVYPRP here? two

---

System: Escherichia coli TOP10;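 note: peptides expressed intracellularly from a pBAD plasmid library in pooled LB shake-flask culture, induced with 0.3% L-arabinose, DNA abundance read by NGS, three biological replicates, DESeq2 with apeglm shrinkage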
Experiment: shrunken log2 fold change of peptide-encoding DNA abundance (4.5 h post-induction vs induction); higher = less antimicrobial activity (less host growth inhibition)
Conditions: time post-induction: 4.5 h; library: site-saturation at positions 5, 18, 19, 20
Please use Criterion met whenever shrunken log2 fold change is not below -0.05, and Criterion not met whenever it is.

>>> print(df.to_string())
            sequence_input       target_under_test    class_label
0  RRIRGRPPRLPRPRPRPKYLPRP  Escherichia coli TOP10  Criterion met
1  RRIRMRPPRLPRPRPRPTHGPRP  Escherichia coli TOP10  Criterion met
2  RRIRIRPPRLPRPRPRPKRWPRP  Escherichia coli TOP10  Criterion met
3  RRIRDRPPRLPRPRPRPLTMPRP  Escherichia coli TOP10  Criterion met

Could you please find out whether RRIRVRPPRLPRPRPRPDKSPRP has shrunken log2 fold change that meets -0.05 or exceeds it? Criterion not met

Could you please find out whether RRIRSRPPRLPRPRPRPSNIPRP has shrunken log2 fold change that meets -0.05 or exceeds it? Criterion not met

Could you please find out whether RRIRDRPPRLPRPRPRPNQMPRP has shrunken log2 fold change that meets -0.05 or exceeds it? Criterion not met
